The values you see were collected from paper PMC5036196.

Biological target: yeast histone H2A-H2B dimer (Saccharomyces cerevisiae) (UniProt P04911)
Assay: ITC; ITC200 at 20 °C; 0.5 mM ARB2 or mutant in the injector, 0.2 mM H2A/B or 0.25 mM H3/4 in the sample cell; 25 mM Tris-HCl pH 7.5, 200 mM NaCl; single-site fitting model
Result type: dH (kcal/mol)
Answer in kcal/mol, number only, no unit symbol.

ARB2-M4 (residues His604, His608 and Arg609 mutated to Ala) (domain or fragment) LQKAIRQQQQHYLSDEFNFVTLPLVSMDLPDNTVLCTPNISESNTIIIVVHDTSDIWAKRNVISGTIDLSSSVIIDNSLDFIKWGLDRKYGIIDVNIPLTLFEPDNYSGMITSQEVLIYLWDNYIKYFPSVAKIAFIGIGDSYSGIVALLGAADTRAVTKTVINFLGDKQLKPLVPLVDETLSEWYFKNSLIFSNNSHQCWKENESRKPRKKFGRVLRCDTDGLNNIIEERFEEATDFILDS; -11.5
ARB2 domain of Hda1 (Hda1^457–698) (domain or fragment) LQKAIRQQQQHYLSDEFNFVTLPLVSMDLPDNTVLCTPNISESNTIIIVVHDTSDIWAKRNVISGTIDLSSSVIIDNSLDFIKWGLDRKYGIIDVNIPLTLFEPDNYSGMITSQEVLIYLWDNYIKYFPSVAKIAFIGIGDSYSGIVHLLGHRDTRAVTKTVINFLGDKQLKPLVPLVDETLSEWYFKNSLIFSNNSHQCWKENESRKPRKKFGRVLRCDTDGLNNIIEERFEEATDFILDS; -12.9
ARB2-M1 (residues Gln463, His467 and Asp471 mutated to Ala) (domain or fragment) LQKAIRAQQQAYLSAEFNFVTLPLVSMDLPDNTVLCTPNISESNTIIIVVHDTSDIWAKRNVISGTIDLSSSVIIDNSLDFIKWGLDRKYGIIDVNIPLTLFEPDNYSGMITSQEVLIYLWDNYIKYFPSVAKIAFIGIGDSYSGIVHLLGHRDTRAVTKTVINFLGDKQLKPLVPLVDETLSEWYFKNSLIFSNNSHQCWKENESRKPRKKFGRVLRCDTDGLNNIIEERFEEATDFILDS; -6.86

Alright, here's another binder for you.
Short answer for ARB2-M3 (residues Val481, Ser482, Met483 and Asp484 mutated to Ala) (domain or fragment) LQKAIRQQQQHYLSDEFNFVTLPLAAAALPDNTVLCTPNISESNTIIIVVHDTSDIWAKRNVISGTIDLSSSVIIDNSLDFIKWGLDRKYGIIDVNIPLTLFEPDNYSGMITSQEVLIYLWDNYIKYFPSVAKIAFIGIGDSYSGIVHLLGHRDTRAVTKTVINFLGDKQLKPLVPLVDETLSEWYFKNSLIFSNNSHQCWKENESRKPRKKFGRVLRCDTDGLNNIIEERFEEATDFILDS : dH was -11.6
